- Tested on: Italian ryegrass (Lolium multiflorum)
- Protocol description: Test B pre-/postemergence plant response
- Assay type: in vivo
- Test conditions: Postemergence, 250 g ai/ha; scale 0 to 100 (0 no effect, 100 complete control)
- Text: […] Treated plants and controls were maintained in a greenhouse for 13 to 15 days, after which time all treated plants were visually evaluated and compared to controls. […]
Assay metric: Plant response rating, Ryegrass, Italian

| Compound | Target desc | Plant response rating, Ryegrass, Italian |
| --- | --- | --- |
| CCOCCn1c(-c2ccccc2)ncc(C(=O)C2=C(O)CCCC2=O)c1=O | Italian ryegrass (Lolium multiflorum) | 10 |
| O=C1CCCC(O)=C1C(=O)c1cnc(-c2ccc(Br)cc2)n(-c2ccccc2)c1=O | Italian ryegrass (Lolium multiflorum) | 70 |
| CCCn1c(-c2ccsc2)ncc(C(=O)C2=C(O)CCCC2=O)c1=O | Italian ryegrass (Lolium multiflorum) | 0 |
| O=C1CCCC(O)=C1C(=O)c1cnc(-c2ccsc2)n(CC2CCCO2)c1=O (stereo not drawn) | Italian ryegrass (Lolium multiflorum) | 15 |

// query Specify the recorded Plant response rating, Ryegrass, Italian for `CCCCCCn1c(-c2ccccc2)ncc(C(=O)C2=C(O)CCCC2=O)c1=O` , system: Italian ryegrass (Lolium multiflorum).
// result 10

// query Specify the recorded Plant response rating, Ryegrass, Italian for `O=C1CCCC(O)=C1C(=O)c1cnc(C2CCCC2)n(-c2ccccc2)c1=O` , system: Italian ryegrass (Lolium multiflorum).
// result 30

* * *

- Test system: giant foxtail (Setaria faberii)
- Protocol description: Test B pre-/postemergence plant response
- Format: in vivo
- Test conditions: 31 g ai/ha, postemergence; scale 0 to 100, 0 is no effect, 100 is complete control
Assay metric: Plant response rating, Foxtail, Giant

Past entries and their recorded results:
| Structure | Result |
| --- | --- |
| COCCOCCn1c(-c2ccccc2)ncc(C(=O)C2=C(O)CCCC2=O)c1=O | 85 |
| COCCn1c(-c2cccs2)ncc(C(=O)C2=C(O)CCCC2=O)c1=O | 45 |

// query Specify the recorded Plant response rating, Foxtail, Giant for `O=C1CCCC(O)=C1C(=O)c1cnc(-c2ccc(Br)cc2)n(-c2ccccc2)c1=O` , system: giant foxtail (Setaria faberii).
// result 75

// query Specify the recorded Plant response rating, Foxtail, Giant for `CCCn1c(-c2cccc(OC)c2)ncc(C(=O)C2=C(O)CCCC2=O)c1=O` , system: giant foxtail (Setaria faberii).
// result 70

// query Specify the recorded Plant response rating, Foxtail, Giant for `O=C1CCCC(O)=C1C(=O)c1cnc(C2CCCC2)n(-c2ccccc2)c1=O` , system: giant foxtail (Setaria faberii).
// result 65

* * *

- Tested on: morningglory (Ipomoea spp.)
- Protocol description: Test A pre-/postemergence plant response
- Format: in vivo
- Test conditions: Postemergence, 500 g ai/ha; visual injury, 0 to 100 scale (0 no effect, 100 complete control), approx. ten days
Assay metric: Morningglory plant response rating
When you answer, write just the number.

Past entries and their recorded results:
| Molecule | Morningglory plant response rating |
| --- | --- |
| O=C(C1=C(O)C2CCC(C2)C1=O)c1cnc(-c2cc(F)cc(F)c2)n(-c2ccccc2)c1=O (stereo not shown) | 100 |
| Cc1cccc(-c2ncc(C(=O)C3=C(O)CCCC3=O)c(=O)n2-c2ccc(F)cc2C)c1 | 70 |
| CCCCn1c(C2CC2)ncc(C(=O)C2=C(O)CCCC2=O)c1=O | 100 |

Below: the item to evaluate.
// query Complete the entry with Morningglory plant response rating for `Cc1ccc(-n2c(-c3cc(F)cc(F)c3)ncc(C(=O)C3=C(O)CCCC3=O)c2=O)cc1`
// result 100
